biological target: DNA dC->dU-editing enzyme APOBEC-3A (Homo sapiens, UniProt P31941); experiment: Dose Response confirmation of small molecule APOBEC3A DNA Deaminase Inhibitors via a fluorescence-based single-stranded DNA deaminase assay. [Related pubchem assays (depositor defined):AID493011, AID493024]; format: functional
Sequence (P31941 whole entry): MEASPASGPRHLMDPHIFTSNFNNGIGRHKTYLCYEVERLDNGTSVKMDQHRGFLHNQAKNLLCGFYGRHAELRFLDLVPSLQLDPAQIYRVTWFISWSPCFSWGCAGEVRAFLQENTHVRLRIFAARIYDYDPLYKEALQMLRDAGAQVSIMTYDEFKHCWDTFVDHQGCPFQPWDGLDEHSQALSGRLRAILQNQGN
Activity calls are given as the source filed them.
parameter: IC50

Answered cases to consult:
C[n+]1ccccc1/C=C/c1ccc2ncccc2c1 = 892 nM (active)
CC1=CC(C)C(C[N+]2(C)CCCCC2)C(C)C1 (stereo not given) = 6160 nM (active)
COCCCn1c(Cc2csc(Nc3cccc(Cl)c3)n2)nnc1SCC(=O)OC1CCCCC1 = 20800 nM (active)
CC(C)CC1CCCCC1OC(=O)C[N+]1(C)CCCCC1 (stereo not given) = 2200 nM (active)

Req: Give the value of IC50 reported for the following: `Cc1ccc[n+](CC(=O)Nc2cc(C(F)(F)F)ccc2N2CCOCC2)c1`
Resp: 2880 nM (active)

* * *

molecular target: Kappa-type opioid receptor (Homo sapiens, UniProt P41145); format: functional
Sequence (P41145 whole entry): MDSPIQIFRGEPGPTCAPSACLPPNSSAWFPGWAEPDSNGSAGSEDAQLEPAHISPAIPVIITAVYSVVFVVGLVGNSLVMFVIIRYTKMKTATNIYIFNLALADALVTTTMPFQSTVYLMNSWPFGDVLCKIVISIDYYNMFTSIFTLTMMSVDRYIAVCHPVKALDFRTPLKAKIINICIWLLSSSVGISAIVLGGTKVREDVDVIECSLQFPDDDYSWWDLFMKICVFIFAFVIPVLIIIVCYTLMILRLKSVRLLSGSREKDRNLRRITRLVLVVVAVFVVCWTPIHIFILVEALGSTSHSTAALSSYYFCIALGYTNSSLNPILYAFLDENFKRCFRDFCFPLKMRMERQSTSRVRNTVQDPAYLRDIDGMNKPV
pIC50: −log10 of the molar value.
parameter: pIC50

Req: Give the value of pIC50 reported for the following: `CC(=O)/C(=N\Nc1ccc(Cl)cc1Cl)Sc1cccc2cccnc12`
Resp: < 4.49

* * *

Reported AC50 values for the following compounds.
molecular target: FAD-linked sulfhydryl oxidase ALR (Homo sapiens, UniProt P55789); assay: inhibitors of human ALR sulfhydryl oxidase, dose response, biochemical, H2O2 detection, luminescence, cherry-pick (AID 493248)
Sequence (P55789 whole entry): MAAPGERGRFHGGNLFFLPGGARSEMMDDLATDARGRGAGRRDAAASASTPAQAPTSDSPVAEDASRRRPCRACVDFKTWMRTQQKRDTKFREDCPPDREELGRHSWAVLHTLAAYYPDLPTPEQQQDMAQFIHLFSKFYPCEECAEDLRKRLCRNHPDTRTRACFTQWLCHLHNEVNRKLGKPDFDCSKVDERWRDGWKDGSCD
The source made the active and inactive calls.

Answered cases to consult:
Cc1ccn2cc(-c3cccc(NC(=O)CCC(=O)O)c3)nc2c1 = 618 nM (active)
O=C(c1ccc2c(c1)OCO2)N1CCN=C1SCc1cccnc1 = 76 nM (active)

Req: Send back FAD-linked sulfhydryl oxidase ALR (Homo sapiens, UniProt P55789) AC50 of COc1cc(O)c(C(CCN2CCCCC2)c2ccc(N(C)C)cc2)c(OC)c1 (stereo not drawn) only.
Resp: 1830 nM (active)

Req: Send back FAD-linked sulfhydryl oxidase ALR (Homo sapiens, UniProt P55789) AC50 of `Nc1nc2ccc(S(=O)(=O)N3CCCCC3)cc2s1` only.
Resp: 3300 nM (active)

Req: Send back FAD-linked sulfhydryl oxidase ALR (Homo sapiens, UniProt P55789) AC50 of `O=[N+]([O-])c1ccc2[nH]c3c(c2c1)CCCC3` only.
Resp: 15600 nM (active)

Req: Send back FAD-linked sulfhydryl oxidase ALR (Homo sapiens, UniProt P55789) AC50 of `CC(=O)Nc1cccc(-c2csc(Nc3ccc(C)cn3)n2)c1` only.
Resp: 169 nM (active)

Req: Send back FAD-linked sulfhydryl oxidase ALR (Homo sapiens, UniProt P55789) AC50 of `Cn1c(=O)c2c(nc(N/N=C/c3ccncc3)n2Cc2ccccc2)n(C)c1=O` only.
Resp: 628 nM (active)

Req: Send back FAD-linked sulfhydryl oxidase ALR (Homo sapiens, UniProt P55789) AC50 of `O=C(Nc1ccncc1)c1ccc2ncsc2c1` only.
Resp: 1340 nM (active)

* * *

target: Trace amine-associated receptor 1 (Homo sapiens, UniProt Q96RJ0); assay: Counterscreen for agonists of the human trace amine associated receptor 1 (hTAAR1): Fluorescence-based cell-based high throughput dose response assay to identify hTAAR1 agonist that also desensitize TAAR1 receptor response.; format: functional;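 further: inhibition of calcium response to PEA at EC80 in Galpha16 coupled cells measured by Fluo-8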
Sequence (Q96RJ0 whole entry): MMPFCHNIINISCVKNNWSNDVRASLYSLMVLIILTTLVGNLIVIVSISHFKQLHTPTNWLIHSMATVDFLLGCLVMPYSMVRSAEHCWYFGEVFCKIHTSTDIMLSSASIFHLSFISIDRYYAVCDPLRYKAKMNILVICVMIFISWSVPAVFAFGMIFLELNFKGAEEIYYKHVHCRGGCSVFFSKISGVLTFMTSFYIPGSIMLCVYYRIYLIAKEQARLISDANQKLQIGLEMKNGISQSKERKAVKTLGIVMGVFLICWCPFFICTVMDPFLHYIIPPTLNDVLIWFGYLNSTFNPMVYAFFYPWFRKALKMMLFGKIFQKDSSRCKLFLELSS
Calls of active or inactive are those of the source.
Log the outcome using a class from TRUE (active), FALSE (inactive)

// below: answered compounds
NC(Cc1ccccc1)c1csc(Nc2ccc(C(=O)NCCO)cc2)n1 (centres undefined) = FALSE
O=C(Nc1ccccc1)Nc1ccncc1 = TRUE
CCCCCCCCN1C(=O)[C@@H](CC(=O)NCCc2ccccc2OC)C[C@@]2(C(=O)OC)C1=C[C@H](C1CCCC1)O[C@@H]2C = TRUE

Next item in the queue.
Req: What is the recorded call for this compound in the test? `Cc1cc(N/N=C/c2ccccc2O)nc(N2CCOCC2)n1`
Resp: TRUE
